# assayed.system: T1, human CD84 on cells (human) (UniProt Q9UIB8)
# T1 sequence (looked up): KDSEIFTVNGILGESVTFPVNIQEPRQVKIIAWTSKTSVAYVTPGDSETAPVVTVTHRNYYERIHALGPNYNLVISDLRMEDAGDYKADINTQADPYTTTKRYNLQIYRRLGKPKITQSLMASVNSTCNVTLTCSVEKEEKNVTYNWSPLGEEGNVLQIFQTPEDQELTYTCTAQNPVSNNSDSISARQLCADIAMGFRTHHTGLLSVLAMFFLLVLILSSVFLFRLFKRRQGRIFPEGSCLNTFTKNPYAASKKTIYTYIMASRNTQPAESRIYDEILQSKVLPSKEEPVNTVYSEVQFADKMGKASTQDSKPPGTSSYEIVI
# method.summary: flow cytometry, hybridoma supernatant at equal antibody concentration, lymphocytes
Task for the reader: assign each of the following binders its reported Lymphocyte binding.
Give bare numbers, in %.

binder	uom	Lymphocyte binding
GYCD84.1-7 (antibody, mouse IgG1, V domains shown) VH: QVTLKESGPGILQPSQTLSLTCSFSGFSLSTSGMGVGWIRQPSGKGLEWLAHIWWDDVKRYNPALKSRLTISKDTSSSQVFLKIASVDTADTATYYCARMRTSYYFDYWGQGTTLTVSS VL: DIQMTQSPASLSASVGETVTITCRASENIFSSLAWYQQRQGKSPQLLVYNAKTLAEGVPSRFSGSGSGTQFSLKINSLQPEDFGSYYCQHHYATPFTFGSGTKLEIK	%	19
GYCD84.3.298 (antibody, mouse IgG1, V domains shown) VH: QVTLKESGPGILQPSQTLSLTCSFSGFSLSTSGMGVGWIRQPSGKGLEWLAHIWWDDVKRYNPALRSRLTISKDTSSSQVFLNIASVDTADTATYYCTRIAVTYFFDFWGQGTTLTVSS VL: DIQMTQSPASLSASVGETVTITCRASENIFSSFAWYQQKRGRSPQLLVYNARTLAEGVPSRFSGSGSGTQFSLKINSLQPEDFGTYFCQHHYASPFTFGSGTELGVK	%	16.6

Can you give me Lymphocyte binding for all of these, one by one?
1. GYCD84.1-108 (antibody, mouse IgG2a, V domains shown) VH: QVQLQQSGAELVRPGTSVKMSCKAAGYTFTNYWIGWVRQRPGHGLEWIGDIYPGGGYTNYNENFKGKATLTADTSSSTAYMQLSSLTSEDSAIYYCARSTTYYSSYWCFDVWGPGTTVTVSS VL: DIVMTQSPSSLSVSAGEKVTMSCKSSQSLLNSGNQANYLAWYQQKPGQPPKLLINGASTRESGVPDRFTGSGSGTDFTLTISSVQAEDLAVYYCQNDHSYPFTFGSGTKLEIK
2. 152-1D5 (antibody, mouse IgG1, V domains shown) VH: QVQLQQPGAEVVQPGTSVKLSCKASGYNFTNYWINWVKLRPGQGLEWIGDIYPVSGTTNYNEKFKRKATLTVDTSSSTGNMQLSSLASEDSALYYCASGTGRFAYWGQGTLVTVSA VL: DIVLTQSPASLAVSLGQRATISCRASQSVSTSSYSYMHWYQQKPGQPPKLLIKFASNLESGVPARFSGSGSGTDFTLNIHPVEEEDTATYYCQHSWEIPYTFGGGTKLEIK
3. GYCD84.2.27 (antibody, mouse IgG1, V domains shown) VH: QVTLKESGPGILQPSQTLSLTCSFSGFSLTTSGMGVGWIRQPSGKGLEWLAHIWWDDVKRYNPALKSRLTISKDTSSSQVFLKIASVDTADTASYYCARMSTSYYFDYWGQGTTLTVSS VL: DIVMTQSHKFMSTSLGDRVSISCKASQSLFTSVAWYQQKPGQSPKLLIYSASYRYTGVPDRFTGSGSGTDFTFTISSVQAEDLAVYYCQQHYSSPFTFGSGTKLGIK
4. GYCD84.1-226 (antibody, mouse IgG1, V domains shown) VH: QVQLQQPGAELVKPGTSVKLSCKASGYNFTRYWINWVKLRPGQGLEWIGDIYPGSGSTNYNEKFKSKATLTVDTSSSTAYMQLSRLASEDSALYYCARDTTIAYWGQGTLVTVSA VL: DIVLTQSPTSLAVSLGQRATISCRASQSVTTSRYSYMHWYQQKPGQPPKLLIKFASNLESGVPARFSGSGSGTDFTLNIHPVEEEDTATYYCQHSWEIPYTFGGGTKLEIK
5. GYCD84.3.89 (antibody, mouse IgG1, V domains shown) VH: EVKLLESGGGLVQPGGSLKLSCAASGFGFSRSWMSWVRQAPGKGLEWIGEINPDSSTINYTPSLKDKFIISRDNAKNTLFLQMSKVRSEDTALYYCATFYDGYSIYWYFDVWGAGTTVTVSS VL: DVLMTQTPLSLPVSLGDQASISCRSSQSIVHSNGDTYLEWYLQKPGQSPKLLIYKVSNRFSGVPDRFSGSGSGTDFTLKISRVEAEDLGVYYCFQGSHVPRTFGGGTKLEIK

Response:
[13.6, 24.4, 25.4, 28.7, 24.9]
